Biological target: Proteasome subunit beta (Trypanosoma cruzi)
Sequence (whole entry): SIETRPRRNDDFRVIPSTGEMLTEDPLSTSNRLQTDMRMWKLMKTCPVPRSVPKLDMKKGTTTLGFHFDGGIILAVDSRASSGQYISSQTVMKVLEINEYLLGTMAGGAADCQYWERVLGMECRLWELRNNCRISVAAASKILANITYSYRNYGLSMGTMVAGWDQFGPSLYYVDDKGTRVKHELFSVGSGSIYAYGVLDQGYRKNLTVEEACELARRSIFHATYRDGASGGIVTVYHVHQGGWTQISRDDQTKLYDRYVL
Assay: Trypanosoma cruzi proteasome chymotrypsin-like activity (TcProtChymo) assay.
Type: functional
Design: scale not given: in the data most compounds retested in dose-response had high values
Conditions: 9.37 µM
Percent Effect overview
Report the value in % with no unit label.

>  <compound>
CCc1nc(C)ncc1C(=O)N1CCCC(n2nc(C)nc2C)C1 (stereo unspecified)

>  <Percent Effect, %>
0.0853

$$$$
>  <compound>
CNc1nc(C2CCCN2C(C)=O)nc2c1CCN(CC1CC1)C2 (stereo unspecified)

>  <Percent Effect, %>
12.2

$$$$
>  <compound>
O=C(Nc1cccc2c1CCCC2)C1CCCN1c1nccs1 (stereo unspecified)

>  <Percent Effect, %>
5.55

$$$$
>  <compound>
Cc1nc(N2CCCC2)nc2c1CN(C(=O)N1CCOCC1)CC2

>  <Percent Effect, %>
15.9

$$$$
>  <compound>
Cc1ccc([C@@H]2CN(C(=O)c3csc(C)n3)C[C@H]2NC(=O)C2CC2)cc1

>  <Percent Effect, %>
5.99

$$$$
>  <compound>
O=C(NC[C@]1(O)CN(Cc2ccccc2F)C[C@H]1O)c1ccccn1

>  <Percent Effect, %>
10.5

$$$$
>  <compound>
CN(C)CC1CN(Cc2nnc(-c3ccccc3Cl)o2)CCO1 (stereo unspecified)

>  <Percent Effect, %>
15.7

$$$$
>  <compound>
c1cnc(OCc2nnc3n2CCN(CC2CC2)C3)nc1

>  <Percent Effect, %>
2.91

$$$$

Fill in the blank: the reported Percent Effect of `COc1cccc(CNc2cnn(C)c(=O)c2Cl)c1` is ____.
3.48

Fill in the blank: the reported Percent Effect of CCOC1COC2(CCN(S(=O)(=O)c3cccc(F)c3)CC2)C1 (stereo unspecified) is ____.
19.9

Fill in the blank: the reported Percent Effect of `CN1CCN(CC2CC2)C(=O)c2cnc(N3CCCC3)nc21` is ____.
4.16
